System: HCC-2998 colon
Experiment: NCI tumour cell line growth inhibition, 48 h
quantity-name: log10(TGI) (log10 of the value in µM)

{"columns": ["compound", "quantity-name", "assay-result"],
 "data": [
  ["O=C1C(c2ccccc2)=[N+]([O-])c2ccccc21", "log10(TGI)", 1.59],
  ["NC(=O)c1cc2c3ccccc3ccn2c1-c1ccccc1", "log10(TGI)", 0.98],
  ["CSc1nc(NC(C)C)c2c(n1)Sc1nc3ccccc3n1N=C2", "log10(TGI)", 1.40],
  ["Cc1c(C(=O)NCCN2CCOCC2)cn2ncnc(Oc3ccc(NC(=O)Nc4ccc(Cl)c(C(F)(F)F)c4)cc3)c12", "log10(TGI)", 0.57],
  ["CCOC(=O)/C=C/C1=C(c2cccs2)c2ccccc2CC1", "log10(TGI)", 1.81],
  ["O=S(=O)(c1cc(Cl)ccc1Cl)n1ccnc1", "log10(TGI)", 1.63],
  ["CN(C)CCNC(=O)c1cc(Cl)cc2ccc(-c3ccccc3)nc12", "log10(TGI)", 1.14],
  ["O=C(O)c1ccc2c(c1)CCCC(c1ccc(Cl)cc1Cl)=C2c1ccc(O[C@H]2CCN(CCCF)C2)cc1", "log10(TGI)", 1.45],
  ["CC[PH+](CC)CC.O=COC1OC([S-])C(OC=O)C(OC=O)C1OC=O.[Au+] (configuration not stated)", "log10(TGI)", 0.48]
]}

###

Tested on: M14 melanoma
Test: NCI tumour cell line growth inhibition, 48 h
Each item that follows carries a reported TGI.
quantity-name: TGI

{"columns": ["compound", "assay-result"],
 "data": [
  ["CN(C)/N=C(/c1nc2ccc(Cl)cc2[nH]c1=O)C(O)c1ccc(C(O)/C(=N\\N(C)C)c2nc3ccc(Cl)cc3[nH]c2=O)cc1 (centres undefined)", "> 100 µM"],
  ["COc1ccc(/C=C2\\CCCC(C(NO)c3ccc(OC)cc3)C2=NO)cc1 (centres undefined)", "> 100 µM"],
  ["CC(C)c1cccc(C(C)C)c1NC(=O)/C(CC(=O)CC(c1ccccc1)c1c(O)c2ccccc2oc1=O)=N/O (centres undefined)", "> 100 µM"],
  ["COc1ccc(/C=C\\c2cc(OC)c(O[Si](C)(C)C(C)(C)C)c(OC)c2)cc1", "> 100 µM"],
  ["CCOc1cc(/C=N\\Nc2nnc(C)n2N)c(C)cc1N(CCCl)CCCl", "> 49.8 µM"],
  ["Cc1cc(C)c2c(=O)cc(-c3cccc(F)c3)[nH]c2n1", "> 100 µM"],
  ["CCOc1ccc(Nc2nc(N)nc(N)c2N)cc1", "> 100 µM"],
  ["CC1CCC2(NC1)OC1CC3C4CC=C5CC(OC6OC(CO)C(OC7OC(C)C(O)C(O)C7O)C(O)C6OC6OC(C)C(O)C(O)C6O)CCC5(C)C4CCC3(C)C1C2C (centres undefined)", "6.39 µM"],
  ["Cc1nc2sccn2c1-c1csc(Nc2cccc(Cl)c2C)n1", "28.5 µM"]
]}

###

System: SR leukemia
Test: NCI tumour cell line growth inhibition, 48 h; in the data active = GI50 below about 0.43 µM; inactive = the rest
Outcomes: class 1 for active, class 0 for inactive

{"columns": ["molecule", "class-assignment"],
 "data": [
  ["COc1ccccc1/C=C/C(=O)c1ccccc1", "class 0"],
  ["NC(N)=NCCC1OC(=O)C2=C1c1c(O)ccc3nccc(c13)O2 (stereo not given)", "class 0"],
  ["COC(=O)C1CCc2sc3ncnc(Nc4cn[nH]c4C(=O)Nc4ccc(CN5CCN(C)CC5)cc4)c3c21 (stereo not given)", "class 1"],
  ["COc1cc2cc(C(=O)N3C[C@H](CCl)c4c3cc(N)c3ccccc43)[nH]c2c(OC)c1OC", "class 1"],
  ["Cc1cc2c(cc1Cl)SC1=NN(C)C(N(C)C)N1S2(=O)=O (stereo not given)", "class 0"],
  ["CCOc1cccc(/C=N/NC(=O)C(=O)Nc2cccc(C(F)(F)F)c2)c1O", "class 0"],
  ["CN1C(=O)N(C)C2C1NN=c1s/c(=C\\c3ccc(F)cc3)c(=O)n12 (stereo not given)", "class 1"],
  ["Cc1ccc(-c2csc(NC(=O)CN3CCN(c4cc5c(cc4F)c(=O)c(C(=O)O)cn5C4CC4)CC3)n2)cc1", "class 0"],
  ["CCCOc1ccc2nc(NC(=O)OC)[nH]c2c1", "class 1"],
  ["CNCCn1c(=O)c2cc(OC)c(OC)cc2c2ccc3cc4c(cc3c21)OCO4", "class 1"]
]}

###

Test system: OVCAR-3 ovarian
Experiment: NCI tumour cell line growth inhibition, 48 h
Record Condition met whenever TGI is at 40 µM or higher; record Condition not met when lower.

{"columns": ["compound", "measured-target", "class-assignment"],
 "data": [
  ["COC1C2C=CC(C2)[C@H]1[N+](=O)[O-] (stereo not given in full)", "OVCAR-3 ovarian", "Condition met"],
  ["O=C(O)C1CCCCC1C(=O)O.[NH-]C1CCC1.[NH2-].[Pt+2] (stereo not given)", "OVCAR-3 ovarian", "Condition not met"],
  ["CCCCOc1ccc(OCCCCCCCCCC[N+](C)(C)C)cc1", "OVCAR-3 ovarian", "Condition not met"],
  ["COC(=O)C1C(C(=O)OC)C2(OC(c3ccc(Cl)cc3)=CC2=O)C12OC(c1ccc(Cl)cc1)=CC2=O (stereo not given)", "OVCAR-3 ovarian", "Condition met"],
  ["Cc1ccccc1C1=C(C(=O)Nc2ccc(Cl)c(Cl)c2)NC(=S)NC1N (stereo not given)", "OVCAR-3 ovarian", "Condition met"],
  ["CCCCSc1nsc(N(C(=O)c2ccccc2)C(=O)c2ccccc2)n1", "OVCAR-3 ovarian", "Condition met"],
  ["OCCOCn1nncc1Cn1ncc2c(SCc3ccccc3)ncnc21", "OVCAR-3 ovarian", "Condition met"],
  ["Cc1cc(C)c2c(=O)cc(-c3cccc(F)c3)[nH]c2n1", "OVCAR-3 ovarian", "Condition not met"],
  ["Cc1ccc(-c2cc(-c3ccccc3)c(C#N)c(=O)n2C2OC(CO)C(O)C(O)C2O)cc1 (stereo not given)", "OVCAR-3 ovarian", "Condition met"]
]}

###

System: HCT-116 colon
Experiment: NCI tumour cell line growth inhibition, 48 h

{"columns": ["compound", "u", "bound-sign", "TGI"],
 "data": [
  ["Cc1cc(S(=O)(=O)Nc2n[nH]c(-c3ccccn3)n2)c(S)cc1Cl", "µM", "=", 55.1],
  ["Cc1ccc2c(c1)-c1c(C#N)c(N)nc(-c3ccc(Cl)cc3)c1CCS2(=O)=O", "µM", ">", 100],
  ["COc1ccc(C2=NN(C=O)C(c3cccc(Nc4ccnc5cc(Cl)ccc45)c3)C2)cc1 (stereo not drawn)", "µM", "=", 6.02],
  ["Cc1cc(C)c(S(=O)(=O)N(CCCN)OCCCON(CCCN)S(=O)(=O)c2c(C)cc(C)cc2C)c(C)c1", "µM", "=", 3.17],
  ["Cc1cc(S(=O)(=O)/N=C(/C(=C=[N-])C#N)[n+]2ccc(N(C)C)cc2)c(SCC(=O)O)cc1Cl", "µM", ">", 100],
  ["O=C(O)C1CCCCC1C(=O)O.[NH-]C1CCC1.[NH2-].[Pt+2] (stereo not drawn)", "µM", "=", 36.2],
  ["CN(C)CC1CCC/C(=C\\c2ccc(OC(=O)c3ccc(Cl)cc3)cc2)C1=O (stereo not drawn)", "µM", "=", 2.23],
  ["Cc1cccc(C)c1NC(=O)C1C(=O)N(c2c(C)cccc2C)C(=O)/C1=N\\NC(N)=S (stereo not drawn)", "µM", ">", 100],
  ["C=C1C(=O)O[C@H]2[C@H]1CC/C(COC(=O)c1cc3cc(Cl)ccc3[nH]1)=C\\CC[C@@]1(C)O[C@@H]21", "µM", "=", 2.06],
  ["CCOC(=O)c1s/c(=N\\Nc2nc3ccccc3cc2C2OCCO2)n(Cc2ccccc2)c1C", "µM", ">", 100],
  ["CC[PH+](CC)CC.O=COC1OC([S-])C(OC=O)C(OC=O)C1OC=O.[Au+] (stereo not drawn)", "µM", "=", 3.15],
  ["c1ccc2c(c1)Sc1nccc3ccnc-2c13", "µM", ">", 100],
  ["CS(=O)(=O)CSCSSCS(C)(=O)=O", "µM", ">", 100],
  ["COc1ccccc1C1Nn2c(nc3ccccc3c2=O)N1c1ccc(C)cc1 (stereo not drawn)", "µM", "=", 16],
  ["O=S(=O)(O)c1ccc(N=Nc2ccc(N=Nc3ccc(/C=C/c4ccc(N=[N+]([O-])c5ccc(/C=C/c6ccc(N=Nc7ccc(N=Nc8ccc(S(=O)(=O)O)cc8)cc7)cc6S(=O)(=O)O)c(S(=O)(=O)O)c5)cc4S(=O)(=O)O)c(S(=O)(=O)O)c3)cc2)cc1", "µM", ">", 100],
  ["C=C1OC(c2ccccc2NC)=NC12CCCCC2", "µM", ">", 100],
  ["COc1ccc2cc(-c3c(-c4ccncc4)nc(-c4ccc(S(C)(=O)=O)cc4C)n3C)ccc2c1", "µM", ">", 25],
  ["CN(C)CCCNC(=O)c1cc(NC(=O)c2cc(NC(=O)CCCn3c4ccccc4c4ccccc43)cn2C)cn1C", "µM", "=", 13.8]
]}
